target: recombinant eIF4E (Homo sapiens (Human), UniProt P06730); test: Fluorescence polarization competition assay for eIF4E binding potency; conditions: inhibition of eIF4E/EDA-m7GDP-ATTO-550 binding by 50%; Table 4B calculated values; read-out: IC50
Sequence (P06730 whole entry): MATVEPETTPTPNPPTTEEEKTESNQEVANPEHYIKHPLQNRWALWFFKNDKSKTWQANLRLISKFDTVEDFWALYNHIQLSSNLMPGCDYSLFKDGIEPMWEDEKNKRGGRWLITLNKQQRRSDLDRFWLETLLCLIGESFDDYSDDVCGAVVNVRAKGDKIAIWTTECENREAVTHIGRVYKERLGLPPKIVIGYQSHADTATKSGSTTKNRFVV
endpoint.label: IC50 (nM)

molecule: COCCC(CCOC)N(C)c1ncc2nc(C)n(CC#Cc3ccc(Cl)cc3-c3ccnc4c(C(=O)O)csc34)c(=O)c2c1C#N [1173b]
IC50 (nM): 13

molecule: Cc1cc(-c2cc(Cl)ccc2OCCn2c(C)nc3cc(C(F)(F)F)c(-c4ccn(C)n4)c(C#N)c3c2=O)c2scc(C(=O)O)c2n1 [compound 779]
IC50 (nM): 9.54

molecule: Cc1cc(-c2cc(Cl)ccc2C#CCn2c(C)nc3cc(C(F)(F)F)c(Cl)c(C#N)c3c2=O)c2scc(C(=O)O)c2n1 [compound 561]
IC50 (nM): 56.2

molecule: Cc1nc2cc(C(F)(F)F)c(N3CCN(c4ccccn4)CC3)c(C#N)c2c(=O)n1CCOc1ccc(Cl)cc1-c1cccc(C(=O)O)c1 [compound 379]
IC50 (nM): 26.7

molecule: Cc1cc(-c2cc(Cl)ccc2OCCn2c(C)nc3cnc(C(C)F)c(C#N)c3c2=O)c2scc(C(=O)O)c2n1 (stereo not shown) [compound 1065]
IC50 (nM): 18.6

[a] Cc1cc(-c2cc(Cl)ccc2OCCn2c(C)nc3cc(C(F)(F)F)c(N(C)C)c(C#N)c3c2=O)c2scc(C(=O)O)c2n1 [compound 996]
[b] Cc1nc2cc(C(C)(F)F)cc(C#N)c2c(=O)n1CCOc1ccc(Cl)cc1-c1ccnc2c(C(=O)O)csc12 [compound 217]
Given a and b , report the one with the higher recorded IC50. Refer to your chosen item by its label in the answer.
b
(b: 55.4 nM, a: 31.6 nM)

[I] Cc1nc2c(F)cc(Cl)c(C#N)c2c(=O)n1CCOc1ccc(Cl)cc1-c1ccnc2c(C(=O)O)csc12 [compound 407]
[II] Cc1cc(-c2nc3c(=O)n(CCOc4ccc(Cl)cc4-c4ccc(C(N)=O)c5c(C(=O)O)csc45)c(C)nc3cc2C(F)(F)F)ccn1 [788Fb]
Given I and II , report the one with the higher recorded IC50. Refer to your chosen item by its label in the answer.
I
(I: 33.1 nM, II: 4.35 nM)
